Tested on: Aspergillus niger
assay_explanation: Antifungal activity against Aspergillus niger after 72 hrs by broth dilution method
Assay type: functional
Activity calls are given as the source filed them. The rule behind the calls is not given here.
property_name: MIC95

// solved cases for MIC95 follow
molecule | MIC95
COc1cc(/C=C/c2cc(/C=C/c3ccc(O)c(OC)c3)n(C(N)=S)n2)ccc1O | 2.5 uM/ml
COc1cc(/C=C/C(=O)C2=C(/C=C/c3ccc(O)c(OC)c3)N=C3Sc4ccccc4N3C2c2ccc(O)cc2)ccc1O (stereo not drawn) | inactive
OC(Cn1cncn1)(Cn1cncn1)c1ccc(F)cc1F | 2.5 uM/ml
COc1cc(C=C(C(=O)/C=C/c2ccc(O)c(OC)c2)C(=O)/C=C/c2ccc(O)c(OC)c2)ccc1O | inactive
COc1cc(/C=C/C(=O)C(=Cc2ccccc2)C(=O)/C=C/c2ccc(O)c(OC)c2)ccc1O | inactive
COc1cc(/C=C/C(=O)C2=C(/C=C/c3ccc(O)c(OC)c3)N=C3Sc4ccccc4N3C2c2ccc(C)cc2)ccc1O (stereo not drawn) | inactive
COc1cc(/C=C/C(=O)C2=C(/C=C/c3ccc(O)c(OC)c3)N=C3Sc4ccccc4N3C2c2ccc([N+](=O)[O-])cc2)ccc1O (stereo not drawn) | 10 uM/ml

Now examine the next entry.
Task item: Send back Aspergillus niger MIC95 of COc1cc(/C=C/C(=O)C(=Cc2ccc(N(C)C)cc2)C(=O)/C=C/c2ccc(O)c(OC)c2)ccc1O only.
Reply: 5 uM/ml
